settings: 308.2 K; Liquid; Transpiration method

| SMILES_STRING | vapor or sublimation pressure, kPa |
| --- | --- |
| OCCc1ccccc1 | 0.0153 |
| O=Cc1ccccc1 | 0.3195 |
| O=Cc1ccco1 | 0.4911 |
| O=CCc1ccccc1 | 0.05436 |
